biological target: Bovine milk xanthine oxidase (XO, EC 1.17.3.2) (Bos taurus); construct: Xanthine oxidase from bovine milk (EC 1.17.3.2); purchased Sigma Aldrich Co., (St. Louis, MO, USA); host or cells: bovine milk; test: Xanthine oxidase inhibition kinetics (Lineweaver–Burk and Dixon plots); assay type: biochemical; settings: Dixon plots; read-out: Ki (inhibition constant)
Sequence (P80457 whole entry): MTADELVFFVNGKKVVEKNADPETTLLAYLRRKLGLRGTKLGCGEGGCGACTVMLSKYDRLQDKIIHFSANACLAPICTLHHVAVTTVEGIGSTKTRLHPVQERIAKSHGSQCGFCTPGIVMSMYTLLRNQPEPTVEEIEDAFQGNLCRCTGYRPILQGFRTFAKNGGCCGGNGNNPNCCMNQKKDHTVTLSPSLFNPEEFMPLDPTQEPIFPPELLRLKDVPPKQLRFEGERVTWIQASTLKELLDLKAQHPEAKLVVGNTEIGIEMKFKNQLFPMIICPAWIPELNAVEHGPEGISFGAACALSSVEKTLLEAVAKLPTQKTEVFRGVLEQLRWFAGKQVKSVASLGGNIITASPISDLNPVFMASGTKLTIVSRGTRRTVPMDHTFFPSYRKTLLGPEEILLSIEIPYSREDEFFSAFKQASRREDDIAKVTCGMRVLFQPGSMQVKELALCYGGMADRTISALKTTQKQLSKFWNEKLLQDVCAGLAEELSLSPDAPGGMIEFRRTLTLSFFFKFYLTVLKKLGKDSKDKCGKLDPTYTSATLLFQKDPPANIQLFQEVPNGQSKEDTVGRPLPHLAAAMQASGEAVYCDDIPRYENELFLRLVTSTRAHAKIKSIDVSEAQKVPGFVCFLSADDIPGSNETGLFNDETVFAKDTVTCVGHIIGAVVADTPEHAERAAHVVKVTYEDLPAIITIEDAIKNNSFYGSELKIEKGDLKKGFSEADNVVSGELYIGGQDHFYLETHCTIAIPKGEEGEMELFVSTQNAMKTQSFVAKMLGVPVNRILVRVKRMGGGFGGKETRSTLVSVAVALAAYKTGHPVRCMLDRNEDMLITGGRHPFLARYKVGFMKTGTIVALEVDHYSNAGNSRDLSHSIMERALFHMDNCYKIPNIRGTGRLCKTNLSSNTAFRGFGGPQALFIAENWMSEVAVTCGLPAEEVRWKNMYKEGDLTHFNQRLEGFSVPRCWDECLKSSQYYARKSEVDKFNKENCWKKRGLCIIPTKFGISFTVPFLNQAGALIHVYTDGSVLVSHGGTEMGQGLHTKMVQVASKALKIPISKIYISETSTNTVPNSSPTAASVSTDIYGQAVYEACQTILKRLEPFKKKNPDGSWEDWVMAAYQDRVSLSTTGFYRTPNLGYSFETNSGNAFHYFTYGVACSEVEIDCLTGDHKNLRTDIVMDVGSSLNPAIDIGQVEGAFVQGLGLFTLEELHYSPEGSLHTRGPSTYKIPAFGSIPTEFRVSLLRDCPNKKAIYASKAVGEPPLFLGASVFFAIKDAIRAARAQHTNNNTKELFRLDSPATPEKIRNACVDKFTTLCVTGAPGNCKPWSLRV
pKi: −log10 of the molar value.
Lab note: anything with pKi at or over 5 counts as criterion met; the rest go in criterion not met.

1. CC(C)=CCc1c2c(c3occ(-c4ccc(O)cc4)c(=O)c3c1O)C=CC(C)(C)O2    criterion not met
2. CC(C)=CCc1c(O)c(CC=C(C)C)c2occ(-c3ccc(O)c(O)c3)c(=O)c2c1O    criterion met
3. COc1cc(-c2coc3c(CC=C(C)C)c(O)c(CC=C(C)C)c(O)c3c2=O)ccc1O    criterion not met
4. CC(C)=CCc1c(-c2coc3cc(O)cc(O)c3c2=O)cc2c(c1O)OC(C)(C)C=C2    criterion not met
